- TARGET SYSTEM: recombinant human PREP (Homo sapiens)
- Construct: purchased R&D System
- Sequence (P48147 whole entry): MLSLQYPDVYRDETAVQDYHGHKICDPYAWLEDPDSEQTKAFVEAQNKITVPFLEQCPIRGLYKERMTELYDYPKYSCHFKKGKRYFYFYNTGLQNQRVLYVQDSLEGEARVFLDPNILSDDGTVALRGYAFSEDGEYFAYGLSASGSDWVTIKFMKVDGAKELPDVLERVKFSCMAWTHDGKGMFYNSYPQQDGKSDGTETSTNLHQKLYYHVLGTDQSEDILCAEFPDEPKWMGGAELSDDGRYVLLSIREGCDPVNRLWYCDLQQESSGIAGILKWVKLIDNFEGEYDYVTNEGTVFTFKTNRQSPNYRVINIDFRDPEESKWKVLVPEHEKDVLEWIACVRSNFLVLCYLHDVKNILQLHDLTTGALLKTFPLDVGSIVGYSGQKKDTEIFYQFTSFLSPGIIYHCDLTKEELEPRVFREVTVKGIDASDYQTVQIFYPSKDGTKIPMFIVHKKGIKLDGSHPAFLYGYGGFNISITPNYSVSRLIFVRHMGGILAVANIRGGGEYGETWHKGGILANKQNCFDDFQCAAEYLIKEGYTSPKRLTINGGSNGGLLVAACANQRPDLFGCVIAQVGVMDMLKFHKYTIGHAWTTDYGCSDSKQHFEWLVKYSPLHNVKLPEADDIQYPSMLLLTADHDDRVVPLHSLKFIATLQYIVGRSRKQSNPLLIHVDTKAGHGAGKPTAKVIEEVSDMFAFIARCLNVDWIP
- ASSAY PROTOCOL: PREP inhibition, fluorogenic substrate Z-Gly-Pro-AMC
- Format: biochemical
- CONDITION CONTEXT: Inhibitory Activity (IC50, nM) PREP, recombinant human PREP
MEASURE: IC50 (nM)

INSERT INTO assay_data (structure, target_system, result_number) VALUES
  ('CCN(c1cnc2ccccc2c1)C1CCN(CC(=O)N2CCC[C@H]2C#N)CC1', 'recombinant human PREP (Homo sapiens)', 350),
  ('COc1cc(N[C@@H]2CCN(CC(=O)N3C[C@@H](F)C[C@H]3C#N)C2)c2cccnc2c1', 'recombinant human PREP (Homo sapiens)', 2920),
  ('CCOc1ccc(N[C@H]2CCN(CC(=O)N3CCC[C@H]3C#N)C2)c2cccnc12', 'recombinant human PREP (Homo sapiens)', 14900),
  ('N#C[C@@H]1C[C@H](F)CN1C(=O)CN1CC[C@@H](Nc2cc(C(F)(F)F)c3ncccc3c2)C1', 'recombinant human PREP (Homo sapiens)', 2560),
  ('N#C[C@@H]1C[C@H](F)CN1C(=O)CN1CCC(Nc2cc(C(F)(F)F)c3ncccc3c2)CC1', 'recombinant human PREP (Homo sapiens)', 1400),
  ('N#C[C@@H]1C[C@H](F)CN1C(=O)CN1CCC(Nc2cc(Cl)c3ncccc3c2)CC1', 'recombinant human PREP (Homo sapiens)', 870),
  ('COc1ccc2ncccc2c1N[C@H]1CCN(CC(=O)N2C[C@@H](F)C[C@H]2C#N)C1', 'recombinant human PREP (Homo sapiens)', 6500),
  ('CC(=O)Nc1ccc(NC2CCN(CC(=O)N3C[C@@H](F)C[C@H]3C#N)CC2)c2cccnc12', 'recombinant human PREP (Homo sapiens)', 1630);

The origin of these recorded values is patent US11655235B2.
